- Measured On: MAO A (Homo sapiens)
- Construct: purchased Sigma-Aldrich
- Sequence (P21397 1-527): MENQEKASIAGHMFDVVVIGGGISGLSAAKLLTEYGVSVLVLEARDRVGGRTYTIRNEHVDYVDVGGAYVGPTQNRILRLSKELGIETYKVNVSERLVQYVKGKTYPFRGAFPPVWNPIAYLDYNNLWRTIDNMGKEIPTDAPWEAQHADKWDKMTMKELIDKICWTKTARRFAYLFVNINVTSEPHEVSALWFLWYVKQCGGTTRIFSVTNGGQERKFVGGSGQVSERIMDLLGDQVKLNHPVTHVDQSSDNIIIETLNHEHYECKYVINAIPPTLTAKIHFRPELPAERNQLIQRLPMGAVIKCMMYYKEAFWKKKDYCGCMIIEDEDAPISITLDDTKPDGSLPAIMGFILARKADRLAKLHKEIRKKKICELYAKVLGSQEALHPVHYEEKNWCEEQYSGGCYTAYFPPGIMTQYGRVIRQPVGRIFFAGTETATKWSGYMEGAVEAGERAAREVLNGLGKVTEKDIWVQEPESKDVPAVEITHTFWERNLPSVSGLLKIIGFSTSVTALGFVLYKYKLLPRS
- Experiment Notes: MAO A inhibition, discontinuous fluorimetric kynuramine assay
- Format: biochemical
- Test Settings: 1 μM inhibitor; mean ± SD, n = 2; normalized to control
Below, each of the compounds is paired with its reported inhibition at 1 µM value.
Give just the numeric value; % need not be written.

Reference set, count: 2
INSERT INTO measurements (compound, quantity, result_unit, result) VALUES
  ('COc1ccc(-c2c[se]c(NN=Cc3ccccc3)n2)cc1 [Compound 1-OMe]', 'inhibition at 1 µM', '%', 32.4),
  ('C(=NNc1nc(-c2ccccc2)c[se]1)c1ccccc1 [Compound 1]', 'inhibition at 1 µM', '%', -6.8);

[in] Consider the compound shown here: Cc1ccc(-c2c[se]c(NN=Cc3ccccc3[N+](=O)[O-])n2)cc1 [Compound 2-Me] What is its recorded inhibition at 1 µM?
[out] 17.2

* * *

- Measured On: MAO A (Homo sapiens, UniProt P21397)
- Construct: purchased Sigma-Aldrich
- Experiment Notes: MAO A inhibition, discontinuous fluorimetric kynuramine assay
- Type: biochemical
- Test Settings: 1 μM inhibitor; mean ± SD, n = 2; normalized to control
Quantity: inhibition at 1 µM
Answer format: number, then unit.

INSERT INTO assay_data (smiles_code, measured_on, quantity, result) VALUES
  ('Cc1ccc(-c2c[se]c(NN=Cc3ccccc3)n2)cc1', 'MAO A (Homo sapiens, UniProt P21397)', 'inhibition at 1 µM', '12.7%'),
  ('COc1ccc(-c2c[se]c(NN=Cc3ccc([N+](=O)[O-])cc3)n2)cc1', 'MAO A (Homo sapiens, UniProt P21397)', 'inhibition at 1 µM', '49.4%'),
  ('O=[N+]([O-])c1ccccc1C=NNc1nc(-c2ccccc2)c[se]1', 'MAO A (Homo sapiens, UniProt P21397)', 'inhibition at 1 µM', '26.5%');

[in] Report inhibition at 1 µM for `O=[N+]([O-])c1ccc(C=NNc2nc(-c3ccccc3)c[se]2)cc1` tested on MAO A (Homo sapiens, UniProt P21397).
[out] 71.9%

[in] Thanks! And `Cc1ccc(-c2c[se]c(NN=Cc3cccc([N+](=O)[O-])c3)n2)cc1` ?
[out] 13.4%

[in] Another compound: `COc1ccc(-c2c[se]c(NN=Cc3cccc([N+](=O)[O-])c3)n2)cc1`
[out] 31.2%

[in] And the next one, `COc1ccc(-c2c[se]c(NN=Cc3ccccc3[N+](=O)[O-])n2)cc1` ?
[out] 28%

[in] And the next one, `O=[N+]([O-])c1cccc(C=NNc2nc(-c3ccccc3)c[se]2)c1` ?
[out] 32.7%

[in] Item: `Cc1ccc(-c2c[se]c(NN=Cc3ccc([N+](=O)[O-])cc3)n2)cc1`
[out] 22.1%
